Test: small-molecule microarray binders of probe aXIP, primary screen, biochemical, NeuroSMM set, 635/667 nm fluorescence (AID 1119);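 further: probe is the protein aXip251-270 applied at 1 µg/mL to compound-printed slides; binding of probe to printed compounds measured as 667 nm fluorescence plus signal to noise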
Conditions: higher = more signal, called active from +8 up or from −8 down
Tag: yes if measured composite Z-score is not below 0.01, no if it is.

# example entries with known answers
compound=CC(=O)OC[C@H]1O[C@H](C#CCCCc2ccccc2)C=C[C@@H]1OC(C)=O class_label=yes
compound=CC(C)OC(=O)C=C1C[C@@H](c2ccc(C#N)cc2)O[C@@H](c2ccc(C#N)cc2)O1 class_label=yes
compound="Cc1ccc(C2CC=C(C(=O)O)CN2S(=O)(=O)c2ccc(C)cc2)cc1 (stereo not given)" class_label=no

Consider the additional compound presented here.
Does the reported composite Z-score for C[C@@H]1C=CCC(=O)OC[C@H](C)C(=O)OC[C@H]2O[C@H]1C=C[C@H]2O fall at or above the 0.01 mark?
no

Reference source for all entries: PubChem BioAssay
